Form field: IC50 (one value per entry).
STUDY_TARGET: PBP3 (Pseudomonas aeruginosa)
Sequence (G3XD46 whole entry): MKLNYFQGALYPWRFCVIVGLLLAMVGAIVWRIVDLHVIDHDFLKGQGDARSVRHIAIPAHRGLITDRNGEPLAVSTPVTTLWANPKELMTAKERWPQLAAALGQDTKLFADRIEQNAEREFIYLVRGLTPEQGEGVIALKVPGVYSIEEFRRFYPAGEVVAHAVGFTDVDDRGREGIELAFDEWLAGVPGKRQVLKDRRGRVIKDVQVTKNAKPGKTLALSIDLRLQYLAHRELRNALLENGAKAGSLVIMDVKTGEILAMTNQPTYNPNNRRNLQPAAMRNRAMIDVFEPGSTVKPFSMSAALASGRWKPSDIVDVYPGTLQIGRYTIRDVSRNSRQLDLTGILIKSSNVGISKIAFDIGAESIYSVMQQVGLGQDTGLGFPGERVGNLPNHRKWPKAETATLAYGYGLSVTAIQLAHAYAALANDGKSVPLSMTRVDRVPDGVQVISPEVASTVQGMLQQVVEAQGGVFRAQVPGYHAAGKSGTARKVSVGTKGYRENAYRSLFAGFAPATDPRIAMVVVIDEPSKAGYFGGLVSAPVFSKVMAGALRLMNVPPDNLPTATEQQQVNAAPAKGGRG
PROCEDURE_DETAILS: Bocillin-FL competition in whole cells
Assay type: cell-based
Design: gene ftsI; native full-length protein in intact P. aeruginosa PAO1 cells, Bocillin-FL labelled
SETUP_CONDITIONS: read-out: Drug mg/L^a / PIP / CLV; intact PAO1 cells, 30 min incubation; covalent
Note to self: number, then unit, no commentary.

MOLECULE	IC50
CCN1CCN(C(=O)N[C@@H](C(=O)N[C@@H]2C(=O)N3[C@@H]2SC(C)(C)[C@@H]3C(=O)O)c2ccccc2)C(=O)C1=O [piperacillin]	1.7 µM

API: the following record is the query input.
Record summary for O=C(O)[C@H]1/C(=C/CO)O[C@@H]2CC(=O)N21 [clavulanic acid] : reported IC50 = 30.5 µM

Values compiled from paper PMC12802951.
